Recorded IC50 for compounds tested on Receptor-type tyrosine-protein phosphatase mu (Homo sapiens, UniProt P28827), drawn from a number of studies.
Sequence (P28827 whole entry): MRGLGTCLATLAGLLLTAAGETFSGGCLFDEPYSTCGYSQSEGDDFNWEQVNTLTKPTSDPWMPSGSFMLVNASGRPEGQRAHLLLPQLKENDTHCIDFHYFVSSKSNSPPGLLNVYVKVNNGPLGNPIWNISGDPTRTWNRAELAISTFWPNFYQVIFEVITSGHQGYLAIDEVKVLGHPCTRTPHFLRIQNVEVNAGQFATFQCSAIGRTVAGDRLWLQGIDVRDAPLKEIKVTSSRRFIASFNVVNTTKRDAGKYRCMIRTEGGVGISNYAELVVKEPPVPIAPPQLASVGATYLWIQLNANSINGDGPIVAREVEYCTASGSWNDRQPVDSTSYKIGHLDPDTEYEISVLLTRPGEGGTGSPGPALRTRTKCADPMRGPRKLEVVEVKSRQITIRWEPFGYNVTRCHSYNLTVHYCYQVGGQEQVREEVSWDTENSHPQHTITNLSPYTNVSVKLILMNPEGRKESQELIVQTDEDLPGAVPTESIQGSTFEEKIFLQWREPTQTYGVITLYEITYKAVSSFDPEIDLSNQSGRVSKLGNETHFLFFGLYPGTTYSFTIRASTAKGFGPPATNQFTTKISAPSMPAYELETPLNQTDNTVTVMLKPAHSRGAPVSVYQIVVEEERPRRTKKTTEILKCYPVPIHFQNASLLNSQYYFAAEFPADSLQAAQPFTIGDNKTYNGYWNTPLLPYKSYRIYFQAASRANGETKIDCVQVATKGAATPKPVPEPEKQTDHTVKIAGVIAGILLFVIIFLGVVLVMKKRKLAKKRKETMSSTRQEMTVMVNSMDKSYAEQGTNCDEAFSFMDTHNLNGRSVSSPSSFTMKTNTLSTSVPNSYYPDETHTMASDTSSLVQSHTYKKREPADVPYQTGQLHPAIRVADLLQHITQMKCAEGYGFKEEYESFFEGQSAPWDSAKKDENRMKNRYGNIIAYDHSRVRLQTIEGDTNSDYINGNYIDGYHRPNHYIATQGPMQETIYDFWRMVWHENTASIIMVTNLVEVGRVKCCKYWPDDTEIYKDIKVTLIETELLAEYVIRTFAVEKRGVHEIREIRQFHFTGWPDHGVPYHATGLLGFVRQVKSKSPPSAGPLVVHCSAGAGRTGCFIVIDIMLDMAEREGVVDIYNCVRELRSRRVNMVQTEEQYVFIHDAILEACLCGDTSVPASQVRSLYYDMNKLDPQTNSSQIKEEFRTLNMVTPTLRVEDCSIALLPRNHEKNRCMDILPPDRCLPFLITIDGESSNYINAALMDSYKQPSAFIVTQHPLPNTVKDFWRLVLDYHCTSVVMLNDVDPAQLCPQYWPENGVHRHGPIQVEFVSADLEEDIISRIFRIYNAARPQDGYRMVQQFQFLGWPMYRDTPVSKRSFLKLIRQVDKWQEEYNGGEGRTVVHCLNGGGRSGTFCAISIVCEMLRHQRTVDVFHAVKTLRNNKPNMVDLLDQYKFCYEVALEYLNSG

CC1(C)Cc2c(O)c(C=O)c3c(c2C1)C(=O)OC(O)C3 (stereo not given) :: 16 µM
O=C(Nc1ccc(OCc2ccccc2)c(Cl)c1)C(c1ccccc1)S(=O)(=O)O (stereo not given) :: > 200 µM
CCOC(=O)CC(Cc1ccc(NS(=O)(=O)O)cc1)(C(=O)OC)C(=O)OC :: > 500 µM
O=C(Nc1ccc(I)cc1)C(=O)Nc1ccc(NC(=O)C(c2ccccc2)S(=O)(=O)O)cc1 (stereo not given) :: > 50 µM

Now, please, on to the next compound.
Any idea what IC50 was measured for O=C(Nc1ccc(NC(=O)C(c2ccccc2)S(=O)(=O)O)cc1)C(=O)Nc1ccc(-c2ccccc2)cc1 (stereo not given) ? > 50 µM
